test system: OVCAR-3; experiment: NCI tumour cell line growth inhibition, 48 h
Calls of active or inactive are those of the source. Rule as the data show it: active = GI50 up to about 1.1 µM and inactive = higher.
In this section, each of the molecules is paired with its reported GI50.

Solved cases (3 shown):
O=S(O)CCCSSCCCCSSCCCS(=O)O    > 100 µM (inactive)
COC(=O)NNC(c1ccc(Cl)cc1)c1ccc(Cl)cc1    15.2 µM (inactive)
O=c1oc2ccc3ccccc3c2cc1-c1cn2ccsc2n1    17.9 µM (inactive)

Task: # return recorded GI50 for entry COc1cc(/C=C2\C(=O)N(c3cccc(Cl)c3)C(c3ccccc3)S2(=O)=O)cc(OC)c1OC (stereo not given)
Output: 48.8 µM (inactive)

Task: # return recorded GI50 for entry COc1cccc(C2c3cc4c(cc3OC(O)(CO)C2C(=O)O)OCO4)c1.COc1cccc(C2c3cc4c(cc3OC3(O)COC(=O)C23)OCO4)c1 (stereo not given)
Output: 69.5 µM (inactive)
